Test system: MC/9 mast cells
Assay type: cell-based, murine
Recorded conditions: read-out: MCD50: concentration of peptide necessary to induce degranulation of 50% of mast cells
pEC50: −log10 of the molar value.
Please use criterion met whenever pEC50 is not below 5, and criterion not met whenever it is.

Solved cases below.
Sequence chain	Group label
INLKALAALAKALL [Mastoparan 7, INLKALAALAKALL—NH2, reference compound]	criterion not met
INLKALAALAKWIL [MP-12W, I N L K A L A A L A K W I L]	criterion met
INLKALAALAKVIL [MP-12V, I N L K A L A A L A K V I L]	criterion not met
INLKALAALAKCIL [MP-12C, I N L K A L A A L A K C I L]	criterion not met
INLKALAALAKAIL [MP-12A, I N L K A L A A L A K A I L]	criterion not met

IN: Assess whether reported pEC50 for INLKALAALAKLIL [MP-12L, I N L K A L A A L A K L I L] sits at 5 or higher.
OUT: criterion met
